Each entry below carries its recorded normalized growth.
Assay: chemical genetic growth profiling, strain panel (AID 1159580);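 also: tested at 20 µM; growth read once vehicle control cultures reached saturation at 30 °C; 1 = growth at the plate median or of vehicle wells; lower values mean less growth of the strain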
Details: S. cerevisiae deletion strains, growth OD, locus YIR030C, strain dcg1, active compounds read low
About 2,000 (36%) of roughly 5,500 compounds were called active. About 18% were inconclusive and are not listed. Some of the results follow.
No unit in the answer, please; the number alone is enough.

Below: 6 molecules and their reported normalized growth.
molecule	normalized growth
COc1cc(C)c2c(c1C=O)Oc1c(c(C)c(O)c3c1C(O)OC3=O)OC2=O (stereo not drawn)	0.982
CC1=C(/C=C/C(C)=C/C=C/C(C)=C/C(=O)O)C(C)(C)CCC1	1.03
CCOC(=O)C1=C[C@]2(CC)CCCN3CCc4c(n1c1ccccc41)[C@@H]32	0.981
COC(=O)[C@H]1[C@H]2C[C@@H]3c4[nH]c5cc(OC)ccc5c4CCN3C[C@H]2C[C@@H](OC(=O)c2cc(OC)c(OC)c(OC)c2)[C@@H]1OC	1.01
CC(=O)OCC(=O)[C@@]12OC(C)(C)O[C@@H]1CC1C3C[C@H](F)C4=CC(=O)C=C[C@]4(C)[C@@]3(F)[C@@H](O)C[C@@]12C (stereo partly drawn)	1.03
CC1(C)C2CC(=O)O[C@@]3(C)C4=CC(=O)O[C@@H](c5ccoc5)[C@]4(C)CCC3[C@@]2(C)C=C[C@H]1O (stereo partly drawn)	0.975

The reported normalized growth of the molecule `COP(=S)(OC)Oc1ccc(SC)c(C)c1` was 0.988

The reported normalized growth of the molecule `CC[C@]12CCCN3CCc4c(n(c5ccccc45)[C@](O)(C(=O)OC)C1)[C@@H]32` was 0.99

* * *

Test: chemical genetic growth profiling, strain panel (AID 1159580)
Conditions: S. cerevisiae deletion strains, growth OD, locus YLR258W, strain gsy2
About 2,000 (36%) of roughly 5,500 compounds were called active. About 18% were inconclusive and are not listed. No stated cut-off is given here; in the data, active means normalized growth mostly below about 0.91 (no sharp cut-off); inconclusive means no clear call, values can overlap the other calls; inactive means mostly above about 0.92. The list shows a part of the results.
Choose the fitting class; nothing outside active, inactive is accepted.

Consider the worked cases shown below.
molecule	category
COc1cc(/C=C/C(=O)O)ccc1O	inactive
COc1ccc(/C=C/C(=O)c2ccc(O)cc2O)cc1	active

Hey, what did the test say about `O=C(O)c1cc(=O)c(O)c2c(O)c(O)ccc2c1` ?
inactive

Hey, what did the test say about `COc1ccc(/C=C/C(=O)O)cc1OC` ?
inactive

Hey, what did the test say about CC[C@@H]1[C@@H](O)N2C3C[C@H]1C1C(O)[C@]4(C[C@@H]12)c1ccccc1N(C)[C@@H]34 (stereo partly specified) ?
inactive

Hey, what did the test say about `O=C(O)c1cc(=O)c(O)c2c(O)c(O)c(O)cc2c1` ?
active

* * *

Assay: chemical genetic growth profiling, strain panel (AID 1159580)
Details: S. cerevisiae deletion strains, growth OD, locus YML016C, strain PPZ1, active compounds read low
The whole screen tested about 5,500 compounds, of which about 2,000 (36%) were called active. Inconclusive results (about 18%) are left out. The list shows a part of the results.
Each entry below carries its recorded normalized growth.
No unit in the answer, please; the number alone is enough.

Below: 5 molecules and their reported normalized growth.
molecule	normalized growth
CCOP(=S)(OCC)SCSP(=S)(OCC)OCC	0.988
CO[C@@H]1[C@@H](O[C@@H]2O[C@H](C)[C@@H](O[C@H]3C[C@@](C)(O)[C@H](O)[C@H](C)O3)[C@H](N(C)C)[C@H]2O)[C@@H](CC=O)C[C@@H](C)[C@@H](O[C@H]2CC[C@H](N(C)C)[C@@H](C)O2)/C=C/C=C/C[C@H](C)OC(=O)C[C@H]1O	1.01
COS(C)(=O)=O	1
COc1cc(/C=C/C(=O)O)cc(OC)c1OC	1.01
COc1ccc(/C=C/C(=O)O)cc1OC	1

The reported normalized growth of the molecule `COc1ccc(-c2cc(C(F)F)nn2-c2ccc(S(N)(=O)=O)cc2)cc1F` was 1

The reported normalized growth of the molecule `O=C(O)CCC(=O)c1ccc(-c2ccccc2)cc1` was 0.988

The reported normalized growth of the molecule `CCOC(N)=O` was 0.997

The reported normalized growth of the molecule `CCOP(=S)(OCC)SCSCC` was 1

The reported normalized growth of the molecule `Nc1ccc(S(=O)(=O)Nc2nccs2)cc1` was 1.01

* * *

Assay: chemical genetic growth profiling, strain panel (AID 1159580)
Conditions: S. cerevisiae deletion strains, growth OD, locus YFL009W, strain cdc4, active compounds read low
The whole screen tested about 5,500 compounds, of which about 2,000 (36%) were called active. Roughly 18% stayed inconclusive and do not appear here. Some of the results follow.
outcome-measure: normalized growth
No unit in the answer, please; the number alone is enough.

Below: 5 compounds and their reported normalized growth.
compound	outcome-measure	result-number
CCCC1c2ccsc2CCN1C(=S)Nc1ccc(Cl)cc1Cl (stereo unspecified)	normalized growth	0.971
Cc1nc(C(F)(F)F)c(C(=O)O/N=C(/N)c2ccc(Cl)cc2)s1	normalized growth	0.974
Cc1cc(C(=O)O/N=C(/N)c2ccc([N+](=O)[O-])o2)no1	normalized growth	0.97
COc1ccccc1NC(=O)Nc1nn(C)c2cccc(OC)c12	normalized growth	0.94
CC(C)(O)C#Cc1ccc(/C=N\Nc2c(Cl)cc(Cl)cc2Cl)cc1	normalized growth	0.975

The reported normalized growth of the compound `CC(C)(O)C#Cc1ccc(/C=N\Nc2ccccc2)cc1` was 0.948

The reported normalized growth of the compound `CN(C)/C=C/C(=O)c1ccc(C#Cc2ccccc2)cc1` was 0.965

The reported normalized growth of the compound `COCCOc1ccccc1NC(=S)SCCSC(=S)Nc1ccccc1OCCOC` was 0.976

The reported normalized growth of the compound CCC1CCC(C)N(C(=S)Nc2ccc(Br)cc2C)C1 (stereo unspecified) was 0.956

The reported normalized growth of the compound `O=S(=O)(Nc1cc(C(F)(F)F)ccc1F)c1cc(C(F)(F)F)ccc1Cl` was 0.939

The reported normalized growth of the compound `CSc1cccc(N2C(=O)CC(c3c(Cl)cccc3Cl)CC2=O)c1` was 0.966

* * *

Assay: chemical genetic growth profiling, strain panel (AID 1159580);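 also: tested at 20 µM; growth read once vehicle control cultures reached saturation at 30 °C; 1 = growth at the plate median or of vehicle wells; lower values mean less growth of the strain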
Conditions: S. cerevisiae deletion strains, growth OD, locus YGL167C, strain pmr1
Among all 5,500 compounds or so, about 2,000 (36%) were called active. Not shown: some 18% with an inconclusive outcome. No stated cut-off is given here; in the data, active means normalized growth mostly below about 0.91 (no sharp cut-off); inconclusive means no clear call, values can overlap the other calls; inactive means mostly above about 0.92. This is one part of the list.
Choose the fitting class; nothing outside active, inactive is accepted.

Consider the worked cases shown below.
molecule	category
COc1ccc(C=CC(=O)c2ccc(O)cc2O)cc1OC	inactive
COc1ccc(/C=C/C(=O)c2cc(O)ccc2O)cc1	active
COc1cc(/C=C/C(=O)O)cc(OC)c1OC	inactive
O=C1O[C@@H](CO)[C@H](O)[C@@H](O)[C@@H]1O	inactive
CCCNC(C)C(=O)Nc1ccccc1C (configuration not stated)	inactive
COc1ccc(/C=C/C(=O)O)cc1OC	inactive
CC1(C)C2CC(=O)O[C@@]3(C)C4=CC(=O)O[C@@H](c5ccoc5)[C@]4(C)CCC3[C@@]2(C)C=C[C@H]1O (some centres not stated)	inactive
CCCc1cc(OC)c2c(c1)OCO2	inactive

Hey, what did the test say about `COc1cc(/C=C/C(=O)O)ccc1O` ?
inactive

Hey, what did the test say about CCC(COC(=O)c1cc(OC)c(OC)c(OC)c1)(c1ccccc1)N(C)C (configuration not stated) ?
inactive

Hey, what did the test say about Cc1cccc(CN2CCN(C(c3ccccc3)c3ccc(Cl)cc3)CC2)c1 (configuration not stated) ?
inactive

Hey, what did the test say about `COc1ccc(/C=C/c2cc(O)cc(O)c2)cc1` ?
inactive

* * *

Experiment: chemical genetic growth profiling, strain panel (AID 1159580);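 also: tested at 20 µM; growth read once vehicle control cultures reached saturation at 30 °C; 1 = growth at the plate median or of vehicle wells; lower values mean less growth of the strain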
Settings: S. cerevisiae deletion strains, growth OD, locus YLR039C, strain RIC1, active compounds read low
In all, about 5,500 compounds went through this assay and about 2,000 (36%) were called active. About 18% were inconclusive and are not listed. The list shows a part of the results.
# strict inequality: normalized growth < 1 yields Met, everything else yields Not met

Consider the worked cases shown below.
molecule	category
CCn1cc(C(=O)O)c(=O)c2cc3c(cc21)OCO3	Not met
CC1(C)CC2C1CCC1(C)OC2(C)CCC1O (configuration not stated)	Not met
CC1=C(/C=C/C(C)=C/C=C/C(C)=C/C(=O)O)C(C)(C)CCC1	Met
CCn1cc(C(=O)O)c(=O)c2cnc(N3CCCC3)nc21	Met
OC/C=C/c1ccc(O)c(O)c1	Met

Threshold test, normalized growth < 1: `O=C1CC(c2ccccc2)=NO1`
Not met

* * *

Assay: chemical genetic growth profiling, strain panel (AID 1159580);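 also: tested at 20 µM; growth read once vehicle control cultures reached saturation at 30 °C; 1 = growth at the plate median or of vehicle wells; lower values mean less growth of the strain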
Conditions: S. cerevisiae deletion strains, growth OD, locus YDR001C, strain nth1, active compounds read low
About 2,000 (36%) of roughly 5,500 compounds were called active. Roughly 18% stayed inconclusive and do not appear here. Some of the results follow.
outcome-measure: normalized growth
No unit in the answer, please; the number alone is enough.

Below: 5 compounds and their reported normalized growth.
compound	outcome-measure	result-number
S=c1[nH]c2ccccc2s1	normalized growth	0.992
COP(=S)(OC)Oc1ccc(SC)c(C)c1	normalized growth	0.999
CC1=C(/C=C/C(C)=C/C=C/C(C)=C/C(=O)O)C(C)(C)CCC1	normalized growth	1
CC1=C(/C=C/C(C)=C/C=C/C(C)=C/CO)C(C)(C)CCC1	normalized growth	1.01
CC1=C(/C=C/C(C)=C/C=C/C(C)=C\C(=O)O)C(C)(C)CCC1	normalized growth	0.987

The reported normalized growth of the compound `Nc1nc2ncc(CNc3ccc(C(=O)N[C@@H](CCC(=O)O)C(=O)O)cc3)nc2c(=O)[nH]1` was 0.997

The reported normalized growth of the compound `O=C(O)P(=O)(O)O` was 0.976

The reported normalized growth of the compound `CC1=C(/C=C/C(C)=C/C=C/C(C)=C/C=C/C=C(C)/C=C/C=C(C)/C=C/C2=C(C)CCCC2(C)C)C(C)(C)CCC1` was 0.987

The reported normalized growth of the compound CC[C@@]1(C2O[C@@H](C3O[C@@](O)(CC)[C@H](C)C[C@@H]3C)C[C@@H]2C)CC[C@H]([C@]2(C)CCC3(C[C@H](O)[C@@H](C)[C@@H]([C@H](C)[C@@H](OC)[C@H](C)C(=O)O)O3)O2)O1 (stereo not given in full) was 0.972

The reported normalized growth of the compound `O=C(O)CNCP(=O)(O)O` was 1.01
